# Experimental protocol: Reversal of P-gp-mediated multidrug resistance in human MCF7/Dox cells assessed as potentiation of doxorubicin-induced cytotoxicity by measuring doxorubicin IC50 at 12.5 uM after 48 hrs by MTT assay (Rvb = 51.19 +/- 0.95 microM)
I'd be grateful if you could share measured IC50 for these entries.
Answers are plain numbers, in µM.

# annotated cases, reported IC50 shown
Compound	Val
COc1cc(O)c(C(=O)/C=C/c2ccc(N3CCN(C(=O)OC(C)(C)C)CC3)cc2)c(OC)c1	59.2
COc1cc(OC)c(C(=O)/C=C/c2cccc(N3CCN(C(=O)OC(C)(C)C)CC3)c2)c(O)c1CC=C(C)C	20.1
COc1cc(OC)c(C(=O)/C=C/c2cccc(Cl)c2)c(O)c1CC=C(C)C	9.39
COc1ccc(C(=O)/C=C/c2cccc(N3CCNCC3)c2)c(OC)c1	4.9
COc1cc(OC)c(C(=O)/C=C/c2cccc(C(F)(F)F)c2)c(O)c1CC=C(C)C	6.26
CCCCc1c(OC)cc(OC)c(C(=O)/C=C/c2cccc(N3CCNCC3)c2)c1O	3.57
CCCc1c(OC)cc(OC)c(C(=O)/C=C/c2cccc(N3CCNCC3)c2)c1O	5.12
COc1cc(OC)c(C(=O)/C=C/c2cccc(N3CCOCC3)c2)c(O)c1CC=C(C)C	31.6
COc1c(C)c(O)c(C)c(O)c1C(=O)/C=C/c1ccccc1 [CHEBI:70658]	24.7
CCc1c(OC)cc(OC)c(C(=O)/C=C/c2cccc(N3CCNCC3)c2)c1O	4.69

Go through the items and report each one's IC50.
1. COc1cc(OC)c(C(=O)/C=C/c2ccc(N3CCN(C(=O)OC(C)(C)C)CC3)cc2)c(O)c1CC=C(C)C
2. CCCCCc1c(OC)cc(OC)c(C(=O)/C=C/c2cccc(N3CCNCC3)c2)c1O
3. COc1cc(O)c(C(=O)/C=C/c2cccc(N3CCNCC3)c2)c(OC)c1
4. COc1cc(OC)c(C(=O)/C=C/c2ccc(OC)c(OC)c2OC)c(O)c1CC=C(C)C
5. COc1ccc(/C=C/C(=O)c2c(OC)cc(OC)c(CC=C(C)C)c2O)cc1
6. COc1cccc(/C=C/C(=O)c2c(OC)cc(OC)c(CC=C(C)C)c2O)c1

Given back:
1: 52.2; 2: 23.6; 3: 2.63; 4: 27.5; 5: 20.7; 6: 7.86

Go through the items and report each one's IC50.
1. COc1cc(O)c(C(=O)/C=C/c2cccc(N3CCOCC3)c2)c(OC)c1
2. COc1cc(OC)c(C(=O)/C=C/c2cccc(N3CCNCC3)c2)c(O)c1CC=C(C)C

Given back:
1. 18.8
2. 1.02

Go through the items and report each one's IC50.
1. COc1cc(OC)c(C(=O)/C=C/c2cccc(F)c2)c(O)c1CC=C(C)C
2. COc1cc(OC)c(C(=O)/C=C/c2ccc(Cl)cc2)c(O)c1CC=C(C)C
3. COc1cc(OC)c(C(=O)/C=C/c2ccc(N(C)C)cc2)c(O)c1CC=C(C)C
4. COc1cc(O)c(C(=O)/C=C/c2cccc(N3CCN(C)CC3)c2)c(OC)c1
5. COc1cc(O)c(C(=O)/C=C/c2cccc(N3CCN(C(=O)c4ccc(OC)c(OC)c4)CC3)c2)c(OC)c1

Given back:
1. 12.6
2. 21.8
3. 17.4
4. 18
5. 42.3

src = BindingDB's records for doi:10.1016/j.ejmech.2019.05.053
